System: HeLa cervical adenocarcinoma
protocol-details: Cell Proliferation Inhibition Assay, Hela (ATP Lite)
Assay type: cell-based
condition: Homo sapiens, ATP-Lite method
property-label: log10 of IC50 (log10 of the value in µM)
// do not treat as linear: log10 of IC50, unit µM

Guide cases for log10 of IC50, answers given:
For the compound shown here, `COc1ccc(NC(=O)c2sc3ncnc4c3c2NC(=O)N4c2ccc(OCc3ccccn3)c(Cl)c2)cc1OC` , give the reported log10 of IC50.
2.00

How about this compound: `O=C(Nc1ccc(CN2CCCCC2)cc1)c1sc2ncnc3c2c1NC(=O)N3c1ccc(Sc2ccccc2)cc1`
0.63

How about this compound: `O=C(O)c1sc2ncnc3c2c1NC(=O)N3c1ccc(OCc2ccccn2)c(Cl)c1`
2.00

How about this compound: `O=C(Nc1ccc(NCCCN2CCOCC2)nc1)c1sc2ncnc3c2c1NC(=O)N3c1cccc(Br)c1`
1.00

How about this compound: `O=C(Nc1ccc(CN2CCOCC2)cc1)c1sc2ncnc3c2c1NC(=O)N3c1ccc(OCc2ccccn2)c(Cl)c1`
1.43

Continuing:
For the compound shown here, `O=C(Nc1ccc(CN2CCOCC2)cc1)c1sc2ncnc3c2c1NC(=O)N3c1ccc(Sc2ccccc2)cc1` , give the reported log10 of IC50.
1.73

How about this compound: `O=C(Nc1ccc(CN2CCOCC2)cc1)c1sc2ncnc3c2c1NC(=O)N3c1cccc(Br)c1`
2.00

How about this compound: `COc1cc(NC(=O)c2sc3ncnc4c3c2NC(=O)N4c2cccc(Br)c2)ccc1OCCN1CCCCC1`
1.77

How about this compound: `O=C(Nc1ccc(CN2CCCCC2)cc1)c1sc2ncnc3c2c1NC(=O)N3c1ccc(F)c(Cl)c1`
1.63

====

Listing: pIC50 of selected compounds
study-system: HER-4 (Homo sapiens)
Construct: His6 with thrombin site (N)
Sequence (Q15303 676-1307): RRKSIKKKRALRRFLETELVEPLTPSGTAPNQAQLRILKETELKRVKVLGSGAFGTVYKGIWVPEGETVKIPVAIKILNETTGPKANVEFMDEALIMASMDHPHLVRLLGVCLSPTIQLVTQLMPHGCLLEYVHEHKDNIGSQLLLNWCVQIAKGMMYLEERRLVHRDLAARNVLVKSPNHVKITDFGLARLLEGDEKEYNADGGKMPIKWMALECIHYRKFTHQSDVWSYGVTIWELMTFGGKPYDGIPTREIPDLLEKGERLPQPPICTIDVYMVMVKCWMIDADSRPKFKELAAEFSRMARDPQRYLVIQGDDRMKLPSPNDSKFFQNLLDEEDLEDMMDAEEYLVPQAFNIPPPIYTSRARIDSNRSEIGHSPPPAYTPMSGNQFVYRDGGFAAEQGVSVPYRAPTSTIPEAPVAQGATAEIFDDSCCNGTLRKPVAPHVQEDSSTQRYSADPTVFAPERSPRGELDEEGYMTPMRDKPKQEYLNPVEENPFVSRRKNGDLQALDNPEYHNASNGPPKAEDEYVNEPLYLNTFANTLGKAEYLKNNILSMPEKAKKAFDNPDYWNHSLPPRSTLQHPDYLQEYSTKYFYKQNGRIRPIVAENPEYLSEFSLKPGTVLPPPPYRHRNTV
protocol-details: HER-4 Kinase Assay
Procedure: The HER-4 kinase used was purified at Proqinase (Freiburg, Germany) from a construct that consisted of a fusion of GST (Glutathione-S-Transferase), HIS6-Thrombin and the nucleotides encoding amino acids 676 to 1307 of HER-4 (Accession NM 005235). […] The reaction plates were incubated at 30° C. for 1 hr. […] The plates were then sealed and read on the TopCount scintillation counter. […]
Reminder that pIC50 is minus the log10 of a molar concentration.

Query pIC50 on HER-4 (Homo sapiens) for `O=C(Nc1ccc(CN2CCCCC2)cc1)c1sc2ncnc3c2c1NC(=O)N3c1ccc(Oc2ccccc2)cc1`
7.74

How about this compound: `O=C(Nc1ccc(CN2CCOCC2)cc1)c1sc2ncnc3c2c1NC(=O)N3c1ccc(Oc2ccccc2)cc1`
7.00

How about this compound: `O=C(Nc1ccc(CN2CCC(O)CC2)cc1)c1sc2ncnc3c2c1NC(=O)N3c1ccc(Oc2ccccc2)cc1`
8.05

How about this compound: O=C(Nc1ccc(CN2CCCC(F)C2)cc1)c1sc2ncnc3c2c1NC(=O)N3c1ccc(Oc2ccccc2)cc1 (stereo not shown)
7.23

How about this compound: `COc1cc(NC(=O)c2sc3ncnc4c3c2NC(=O)N4c2ccc(Oc3ccccc3)cc2)ccc1CN1CCOCC1`
7.33

How about this compound: `CN1CCN(Cc2ccc(NC(=O)c3sc4ncnc5c4c3NC(=O)N5c3ccc(Oc4ccccc4)cc3)cc2)CC1`
7.09

How about this compound: `O=C(Nc1ccc(CN2CCCCC2)cc1)c1sc2ncnc3c2c1NC(=O)N3c1ccc(Sc2ccccc2)cc1`
7.52

How about this compound: `O=C(Nc1ccc(CN2CCOCC2)cc1)c1sc2ncnc3c2c1NC(=O)N3c1ccc(OCc2ccco2)c(Cl)c1`
6.64

How about this compound: `O=C(Nc1ccc(CN2CCC(F)CC2)cc1)c1sc2ncnc3c2c1NC(=O)N3c1ccc(Oc2ccccc2)cc1`
7.48

Continuing:
Query pIC50 on HER-4 (Homo sapiens) for `O=C(Nc1ccc(CN2CCOCC2)cc1)c1sc2ncnc3c2c1NC(=O)N3c1ccc(Sc2ccccc2)cc1`
6.90

====

study-system: HER-2 (Homo sapiens)
Construct: His6 with thrombin site (N); purchased Proqinase (Freiburg, Germany)
protocol-details: HER-2 Kinase Assay
Type: biochemical
condition: test concentration of 1 μM
property-label: inhibition at 1 µM
Kindly report the value followed by its unit.

For the molecule shown here, `O=C(Nc1ccc(CN2CCCCC2)cc1)c1sc2ncnc3c2c1NC(=O)N3c1ccc(Oc2cccc(F)c2)cc1` , give the reported inhibition at 1 µM.
91%

How about this molecule: `COc1cc(NC(=O)c2sc3ncnc4c3c2NC(=O)N4c2ccc(Br)cc2F)ccc1OCCN1CCOCC1`
24%

How about this molecule: COc1ccc(N2C(=O)Nc3c(C(=O)Nc4ccc(OCC5CCCCO5)c(OC)c4)sc4ncnc2c34)c(F)c1 (stereo not shown)
-8%

How about this molecule: `COc1cc(NC(=O)c2sc3ncnc4c3c2NC(=O)N4c2ccc(F)cc2Cl)ccc1OCCN1CCCCC1`
18%

How about this molecule: `O=C(Nc1ccc(NCCCN2CCOCC2)nc1)c1sc2ncnc3c2c1NC(=O)N3c1cccc(Br)c1`
57%

How about this molecule: `COc1cc(N2C(=O)Nc3c(C(=O)Nc4ccc(CN5CCCC5)cc4)sc4ncnc2c34)c(Cl)cc1Cl`
21%

How about this molecule: `COc1ccc(N2C(=O)Nc3c(C(=O)Nc4ccc(OCCN5CCOCC5)c(OC)c4)sc4ncnc2c34)c(F)c1`
51%

How about this molecule: COc1cc(N2C(=O)Nc3c(C(=O)Nc4ccc(OCC5CCCCO5)c(OC)c4)sc4ncnc2c34)c(Cl)cc1Cl (stereo not shown)
-25%

Could you now consider this next molecule?
For the molecule shown here, `COc1cc(N2C(=O)Nc3c(C(=O)Nc4ccc(OCCN5CCOCC5)c(OC)c4)sc4ncnc2c34)c(Cl)cc1Cl` , give the reported inhibition at 1 µM.
-14%

====

study-system: HER-2 (Homo sapiens, UniProt P04626)
Construct: His6 with thrombin site (N)
Sequence (P04626 679-1255): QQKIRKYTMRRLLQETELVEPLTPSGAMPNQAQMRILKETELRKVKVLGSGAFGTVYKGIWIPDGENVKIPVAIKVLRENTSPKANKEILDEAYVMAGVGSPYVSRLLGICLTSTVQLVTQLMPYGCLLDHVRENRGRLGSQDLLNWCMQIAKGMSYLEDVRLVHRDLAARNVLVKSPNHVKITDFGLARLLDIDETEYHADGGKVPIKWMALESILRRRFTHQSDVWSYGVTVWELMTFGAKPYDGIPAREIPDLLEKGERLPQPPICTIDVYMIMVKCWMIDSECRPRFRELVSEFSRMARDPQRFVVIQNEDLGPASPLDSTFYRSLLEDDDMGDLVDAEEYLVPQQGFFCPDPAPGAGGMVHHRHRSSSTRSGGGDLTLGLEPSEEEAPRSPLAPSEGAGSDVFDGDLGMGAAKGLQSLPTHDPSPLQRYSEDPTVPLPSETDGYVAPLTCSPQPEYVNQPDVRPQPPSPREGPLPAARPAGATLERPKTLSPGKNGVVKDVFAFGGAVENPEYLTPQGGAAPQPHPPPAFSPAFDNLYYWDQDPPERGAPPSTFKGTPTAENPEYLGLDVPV
protocol-details: HER-2 Kinase Assay
condition: value in parentheses
pIC50: −log10 of the molar value.
Classification field: enter condition met for pIC50 values not below 6, condition not met for values below it.

Please review the following examples before continuing.
State whether the measured pIC50 reaches 6, counting equality as reaching it, for COc1cc(NC(=O)c2sc3ncnc4c3c2NC(=O)N4c2ccc(Sc3ccccc3)cc2)ccc1CN1CCCCC1 [Cpd 224]
condition met

How about this compound: O=C(Nc1ccc(CN2CCCCC2)cc1)c1sc2ncnc3c2c1NC(=O)N3c1ccc(-c2ccc(Cl)cc2)cc1 [Cpd 139]
condition not met

How about this compound: COc1cc(NC(=O)c2sc3ncnc4c3c2NC(=O)N4c2ccc(Br)cc2)ccc1CN1CCOCC1 [Cpd 201]
condition met

How about this compound: COc1cc(N2C(=O)Nc3c(C(=O)Nc4ccc(CN5CCOCC5)cc4)sc4ncnc2c34)ccc1Br [Cpd 84]
condition met

How about this compound: O=C(Nc1ccc(CN2CCCCC2)cc1)c1sc2ncnc3c2c1NC(=O)N3c1ccc(Cc2ccccc2)cc1 [Cpd 164]
condition met

How about this compound: COc1cc(NC(=O)c2sc3ncnc4c3c2NC(=O)N4c2ccc(OCc3ccco3)c(Cl)c2)ccc1CN1CCOCC1 [Cpd 246]
condition met

How about this compound: O=C(Nc1ccc(CN2CCOCC2)cc1)c1sc2ncnc3c2c1NC(=O)N3c1ccc(Oc2cccnc2)cc1 [Cpd 237]
condition met

How about this compound: CN1CCCN(C(=O)c2sc3ncnc4c3c2NC(=O)N4c2ccc(Oc3ccccc3)cc2)CC1 [Cpd 214]
condition not met

How about this compound: C[C@H](c1ccccc1)N1C(=O)Nc2c(C(=O)NC3CCN(C)CC3)sc3ncnc1c23 [Cpd 173]
condition not met

How about this compound: O=C(Nc1ccc(CN2CCCCC2)cc1)c1sc2ncnc3c2c1NC(=O)N3c1cccc(Oc2ccccc2)c1 [Cpd 197]
condition met

Continuing:
State whether the measured pIC50 reaches 6, counting equality as reaching it, for COc1cc(NC(=O)c2sc3ncnc4c3c2NC(=O)N4c2ccc(Cc3ccccc3)cc2)ccc1OCCN1CCCCC1 [Cpd 163]
condition met

====

study-system: HER-2 (Homo sapiens, UniProt P04626)
Construct: His6 with thrombin site (N); purchased Proqinase (Freiburg, Germany)
protocol-details: HER-2 Kinase Assay
Type: biochemical
condition: test concentration of 1 μM
Listing: inhibition at 1 µM of selected molecules
State just the number; it will be interpreted in %.

Guide cases for inhibition at 1 µM, answers given:
For the molecule shown here, `O=C(Nc1ccc(CN2CCCCC2)cc1)c1sc2ncnc3c2c1NC(=O)N3c1ccc(OCc2ccccn2)c(Cl)c1` , give the reported inhibition at 1 µM.
93

How about this molecule: `COc1cc(N2C(=O)Nc3c(C(=O)Nc4ccc(CN5CCOCC5)cc4)sc4ncnc2c34)c(Cl)cc1Cl`
21

How about this molecule: `COc1ccc(N2C(=O)Nc3c(C(=O)Nc4ccc(OC)c(OC)c4)sc4ncnc2c34)c(F)c1`
-3

Could you now consider this next molecule?
For the molecule shown here, `O=C(O)c1sc2ncnc3c2c1NC(=O)N3c1ccc(Br)cc1F` , give the reported inhibition at 1 µM.
-19
